target: androgen receptor (AR) (Homo sapiens, UniProt P10275, Q868H); construct: MDA-kb2 cells are human breast cancer cells stably transfected with a firefly luciferase reporter gene; endogenous in cells; host or cells: MDA-kb2 (human breast cancer cells); assay: cell-based; settings: total exposure score / IC20 (MDA-kb2), recalculated using experimental data
Sequence (P10275 whole entry Q868H): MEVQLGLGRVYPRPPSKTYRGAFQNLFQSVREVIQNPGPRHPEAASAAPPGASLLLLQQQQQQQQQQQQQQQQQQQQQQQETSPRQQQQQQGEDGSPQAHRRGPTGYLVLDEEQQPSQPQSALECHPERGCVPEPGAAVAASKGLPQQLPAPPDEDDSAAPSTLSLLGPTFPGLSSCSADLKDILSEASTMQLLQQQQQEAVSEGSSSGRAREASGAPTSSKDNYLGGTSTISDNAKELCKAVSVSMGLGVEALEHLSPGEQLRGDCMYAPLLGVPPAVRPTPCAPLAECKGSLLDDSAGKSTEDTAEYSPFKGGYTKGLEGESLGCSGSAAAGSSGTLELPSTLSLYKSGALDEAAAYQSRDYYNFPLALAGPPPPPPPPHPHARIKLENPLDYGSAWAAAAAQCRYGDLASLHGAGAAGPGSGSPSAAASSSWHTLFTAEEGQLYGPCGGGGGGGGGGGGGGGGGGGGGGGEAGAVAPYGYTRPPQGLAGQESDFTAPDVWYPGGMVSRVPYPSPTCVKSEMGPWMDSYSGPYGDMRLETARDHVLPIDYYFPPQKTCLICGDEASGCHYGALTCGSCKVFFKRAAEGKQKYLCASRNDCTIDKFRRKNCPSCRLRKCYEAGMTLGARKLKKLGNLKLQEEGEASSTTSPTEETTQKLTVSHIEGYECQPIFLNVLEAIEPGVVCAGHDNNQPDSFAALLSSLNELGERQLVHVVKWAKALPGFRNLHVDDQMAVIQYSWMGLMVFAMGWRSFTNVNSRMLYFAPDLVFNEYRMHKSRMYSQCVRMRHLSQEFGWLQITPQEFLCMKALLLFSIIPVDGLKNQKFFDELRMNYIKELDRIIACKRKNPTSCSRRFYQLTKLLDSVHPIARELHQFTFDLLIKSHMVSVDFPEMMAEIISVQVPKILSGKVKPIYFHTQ
// reported ERR (environmental relevance ratio) for each item listed
// response body must contain only the number

compound: COc1ccc(C(=CC(=O)N2CCOCC2)c2ccc(Cl)cc2)cc1OC [Dimethomorph]
measurement label: ERR (environmental relevance ratio)
observed result: 45.6

We next turn to a different compound, shown below.
Incoming: Name the reported ERR (environmental relevance ratio) value associated with the compound CCOc1ccc2c(c1)C(C)=CC(C)(C)N2 [Ethoxyquin]
Outgoing: 0.75

FYI, the data here is from paper PMC3114813.
